# Target entity: SARS-CoV-2 Main Protease (SARS-CoV-2) (UniProt P0DTD1)
Each item that follows carries a reported pIC50.
As a rule, pIC50 stands for the negative log10 of the concentration, concentration in M.

Sample records with pIC50:
Molecule: CC(C)(O)c1ccc2cncc(NC(=O)C3CN(S(=O)(=O)CC4(C#N)CC4)Cc4ccc(Cl)cc43)c2c1 (configuration not stated)
pIC50: 5.94
//
Molecule: COc1cc(Cl)cc(CC(=O)Nc2cnccc2C)c1
pIC50: 4.43
//
Molecule: COc1ccc(N2CCN(C(=O)c3cc(=O)[nH]c4ccccc34)CC2)cc1
pIC50: 4.83

Look up and report measured pIC50 for this entry: O=C(Cc1cc(Cl)cc(Nc2cccc(OC(F)(F)F)c2)c1)Nc1cncc2ccccc12
5.71

Identify measured pIC50 associated with C=CC(=O)N(c1ccc(C(C)(C)C)cc1)C(C(=O)NCCCSC)c1cccnc1 (configuration not stated)
4.59

Please give the documented pIC50 of N#CCN1Cc2ccc(Cl)cc2C(C(=O)Nc2cncc3ccccc23)C1 (configuration not stated)
6.47

Supply recorded pIC50 for N#CC1(CS(=O)(=O)N2Cc3ccc(Cl)cc3C(C(=O)Nc3cncc4cc(F)ccc34)C2)CC1 (configuration not stated) here.
6.65

Consider the molecule C=CC(=O)N(c1ccc(C(C)(C)C)cc1)C(C(=O)NC)c1cccnc1 (configuration not stated) . State its measured pIC50.
4.45

Let me know recorded pIC50 for N#CCS(=O)(=O)N1Cc2ccc(Cl)cc2C(C(=O)Nc2cncc3ccccc23)C1 (configuration not stated) , thanks.
6.48

Could you please provide reported pIC50 for COCCCNCC1(C(=O)Nc2cncc3ccccc23)CCOc2ccc(Cl)cc21 (configuration not stated) ? Thanks!
4.94

Identify pIC50 associated with the molecule CSCCNC(=O)C(c1cccnc1)N(C(=O)c1cocn1)c1ccc(C(C)(C)C)cc1 (configuration not stated)
5.61

###

# Target entity: SARS-CoV-2 Main Protease (SARS-CoV-2) (UniProt P0DTD1)
pIC50: −log10 of the molar value.
If the reported pIC50 equals or exceeds 5, assign TRUE. If not, assign FALSE.

Compound: COc1cccc(C(NC(=O)Cc2cccc(Cl)c2)c2nc3ccccc3[nH]2)c1 (centres undefined)
Class name: FALSE

Hi team, for O=C(C[C@]1(C(=O)Nc2cncc3ccccc23)CCOc2ccc(Cl)cc21)N1CCN(C2CCOC2)CC1 (stereo in doubt) , is the recorded pIC50 at or above 5?
TRUE

Test whether the compound CC(C)(C)c1ccc(N(C(=O)c2cccc(C#N)c2)C(C(=O)NCCc2cccc(F)c2)c2cccnc2)cc1 (centres undefined) records pIC50 of 5 or higher.
FALSE

Is it the case that Cc1nc2ccc(NCc3cnc4ccccn34)cn2n1 has pIC50 reaching or exceeding 5?
FALSE

Answer whether pIC50 of COc1ccc(-c2ccccc2S(=O)(=O)N2CCN(C(=O)CCl)CC2)cc1 is greater than or equal to 5.
TRUE

Given O=C(Cc1cc(Cl)cc(Nc2cc(Cl)cnc2Br)c1)Nc1cncc2ccccc12 , state whether its pIC50 is at least 5.
TRUE

Dear colleague, could you confirm whether CCN(Cc1ccc(F)cc1)c1cc(Cl)cc(CC(=O)Nc2cncc3ccccc23)c1 has pIC50 at or above 5?
FALSE

###

# Measurement context: rat; in vivo; po; 10.0 mg/kg
Measured parameter: half-life (h)
I only need the number, in h, no unit after it.

Molecule: O=C(Nc1cncc2ccccc12)[C@@H]1CCNc2cc(Cl)c(Cl)cc21 (stereo in doubt)
half-life [h]: 4.25

Please turn your attention to the following entry.
Give half-life for the following molecule: O=C(Nc1cncc2ccccc12)C1CCS(=O)(=O)c2ccc(Cl)cc21 (configuration not stated)
1.91
